Measured binding signal values are reported for all entries that follow.
Biological target: T1, UNK ZnF1-3 (human, UniProt Q9C0B0 31-174)
T1 sequence: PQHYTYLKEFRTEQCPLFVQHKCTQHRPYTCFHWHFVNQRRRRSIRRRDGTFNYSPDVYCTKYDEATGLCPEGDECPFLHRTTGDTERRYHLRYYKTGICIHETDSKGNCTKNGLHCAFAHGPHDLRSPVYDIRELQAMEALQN
Assay: nsRBNS (natural sequence RNA bind-n-seq); RBNS binding buffer (assumed for nsRBNS): 25 mM Tris pH 7.5, 150 mM KCl, 3 mM MgCl2, 0.01% Triton X-100, 500 ug/ml BSA, 20 U/ml SUPERase-In, 4 C; UNK is unkempt and MSI1 is Musashi-1; names of the RNAs are library labels; protein concentration not given here; high values mean tight binding
Over roughly 24,000 sequences, “enrichment r” has its median near 0.99; the highest 2% begin near 3.7. A selection follows.
// note: answer is a bare numeric in enrichment R

31532532_31534450_220_CDS_ENSG00000082213_ENST00000325366|human|control|control (ssRNA) RNA: GGGAGUUCUACAGUCCGACGAUCGAAAUGUAAAAAACUUACAUUACUGGCAGGAAGAUGCUUUGAGCCUAUGGCCCGGUAUAUAAAGGGUAGAACCUCCUGAUGAUCCUCCACCACCCACACUGGGAGCUUGGGGUAACGCCGCAACAGAGGAUUGAGCAUCA : 0.807
chr12:16048344:16048345:+_ENSG00000023734_ENST00000419869|hu_hu|hu_hu_hu_mus_True|18_18 (ssRNA) RNA: GGGAGUUCUACAGUCCGACGAUCAGAUCGUCCAUAAGUAAUAACCAAAAUCUCUCCUUCAGGAAUAUACUCCAUGCUGCUAACAGACAUAUUAAAAUUCAGAGAUUUCACUUCUGUCAUAGUAGCAUGAUCCCAGAGCCGAACCAACAGAGGAUUGAGCAUCA : 0.977

Proceeding to the next binder to report its binding signal.
Query string: Supply reported binding signal belonging to this binder: chr10:120833061:120833062:-_ENSG00000107581_ENST00000369144|perfect_dup|motif|central (ssRNA) RNA: GGGAGUUCUACAGUCCGACGAUCUUGGGACUCUUCUUUAGCAGCUUCUGUUUUUUCCUCUGCUAAUUUCAAAUAUGCCCGGACAACAUCUUCUAAAGAUUUAAUGUUUACCUGUUGGCAUAUGUUCUUAUAUUGAUAUAACCCCAACAGAGGAUUGAGCAUCA
Result string: 0.789
